# study-system: Luciferin 4-monooxygenase (Photinus pyralis)
# method: firefly luciferase enzyme inhibitors, primary screen, artefact control for luciferase-based inhibitor screens, biochemical, luminescence, ATPLite (AID 1006)
# measurement-setup: 10 min, at 10 µM, active compounds read high
Screen size: about 200,000 compounds; about 3,000 (1.5%) were called active. Only a selection was taken, and actives are over-represented in it overall.
The entries below come with measured inhibition values attached.
Your answer is read as %, so omit the unit and give the number.

Before answering, review these 4 worked examples.
{"columns": ["molecule", "study-system", "inhibition (%)"],
 "data": [
  ["Cc1cc2ccccn2c1C(=O)c1cccc(S(=O)(=O)N2CCOCC2)c1", "Luciferin 4-monooxygenase (Photinus pyralis)", 4.2],
  ["COc1cccc(N(CC(=O)Nc2cccc(N(C)S(C)(=O)=O)c2)S(C)(=O)=O)c1", "Luciferin 4-monooxygenase (Photinus pyralis)", -3.8],
  ["CN(c1cccc(NC(=O)Nc2ccc(Cl)cc2)c1)S(C)(=O)=O", "Luciferin 4-monooxygenase (Photinus pyralis)", 50.6],
  ["Cc1noc(C)c1S(=O)(=O)N(C)Cc1ccccc1", "Luciferin 4-monooxygenase (Photinus pyralis)", -6.5]
]}

// moving on: another record for inhibition
Query: Under Luciferin 4-monooxygenase (Photinus pyralis), report inhibition for `COc1cccc(C(=O)Nc2ccc(NC(=O)c3ccco3)cn2)c1`
Result: 6.5

---

# study-system: Luciferin 4-monooxygenase (Photinus pyralis)
# method: firefly luciferase enzyme inhibitors, primary screen, artefact control for luciferase-based inhibitor screens, biochemical, luminescence, ATPLite (AID 1006)
# measurement-setup: 10 min, at 10 µM, active compounds read high
Out of some 200,000 compounds screened, about 3,000 (1.5%) were called active. The entries come from a sample that favours actives as a whole.
Reported values of inhibition for individual entries
Report the figure in % without appending any unit label.

Below: 10 compounds and their reported inhibition.
{"columns": ["compound", "unit-label", "inhibition"],
 "data": [
  ["CC1=C[C@H]2Cc3cc(C)cc(C)c3S(=O)(=O)[C@@H]2C=C1", "%", -5.9],
  ["CCCCNC(=O)N1CCN(S(C)(=O)=O)CC1", "%", -1.2],
  ["N=c1oc2ccccc2cc1C(=O)N/N=C/c1ccccc1", "%", 56.7],
  ["CNC(=O)c1cc2c(ccc3ccccc32)oc1=N", "%", 7.1],
  ["Cc1c(NC(=O)CCC2CCCCC2)cc(C(=O)N2CCOCC2)cc1[N+](=O)[O-]", "%", -6.5],
  ["Cc1ccc(NC(=S)N(Cc2ccco2)C(C)c2cccs2)cc1 (stereo unspecified)", "%", 3.7],
  ["CCc1ccc(Oc2nc([N+](=O)[O-])nn2C)cc1", "%", -9.5],
  ["COC(=O)c1ccc(/C=N/OCC(=O)Nc2cc(F)ccc2F)cc1", "%", 0],
  ["O=C(Cc1cccs1)Nc1cccc(-c2nc3ccccc3[nH]2)c1", "%", -1.9],
  ["CCC1C/C(=C/c2cccs2)C(=O)/C(=C/c2cccs2)C1 (stereo unspecified)", "%", -5.8]
]}

// next item, inhibition requested
Query: Provide inhibition, recorded with Luciferin 4-monooxygenase (Photinus pyralis), of CCOc1ccc(/C=N/NC(=O)C(C)Sc2ccccn2)cc1OCC (stereo unspecified)
Result: -6

---

inhibition values, listed per item
# study-system: Luciferin 4-monooxygenase (Photinus pyralis)
# method: firefly luciferase enzyme inhibitors, primary screen, artefact control for luciferase-based inhibitor screens, biochemical, luminescence, ATPLite (AID 1006)
# measurement-setup: 10 min, at 10 µM, active compounds read high
Hit rate of the full screen: of about 200,000 compounds, about 3,000 (1.5%) were called active. For the sample, actives were picked, then their nearest neighbours and some compounds at random.
A number alone suffices; assume %.

Query: For the compound `Cc1cc(NC(C)C)n2c(nc3ccccc32)c1C#N` , give its reported inhibition.
Result: -2

Query: Supply recorded inhibition for `COc1ccccc1-c1noc(CSc2nc(C)cc(=O)[nH]2)n1` here.
Result: -0.3

Query: # return recorded inhibition for entry `O=C(CCNS(=O)(=O)c1ccc(Br)s1)NCc1ccccc1Cl`
Result: -3.8

Query: Give me measured inhibition, please, for this compound: `C/C(=N\OC(=O)c1ccccc1)c1c(C)nc2cc(C)ccn12`
Result: -3.4

Query: Please report inhibition for the following compound: Cc1ccc(N(C(=O)c2ccc(CN3CCOCC3)o2)C(C(=O)NCCC(C)C)c2cccs2)c(C)c1 (stereo not drawn)
Result: -4.1

Query: Determine its reported inhibition: `COc1ccc(-c2csc(-c3cccs3)n2)cc1OC`
Result: 19.9

Query: Name the recorded inhibition of the compound listed here: `COc1cccc(C(=O)Nc2cc3c(cc2Br)OCCCO3)c1`
Result: 64.3

Query: For `CCOC(=O)CCCNC(=O)COC(=O)/C=C/c1ccc2c(c1)OCO2` , write its inhibition.
Result: -1.4

Query: Tell me inhibition reported for CC(NC(=O)c1cccc2ccccc12)c1ccc2c(c1)CCCC2 (stereo not drawn)
Result: -6.2

Query: Supply inhibition value. Item: CC(C)C(NC(=O)C1CCC(C(C)(C)C)CC1)C(=O)NCCCN1CCCCC1 (stereo not drawn)
Result: -3

Query: Respond only with inhibition recorded for `COc1ccc(NC(=O)c2ccc(C#CC(C)(C)O)cc2)cc1`
Result: 5.6

Query: Fill in reported inhibition for this entry: `Cc1cc2nc(C(F)(F)F)cc(-c3cccs3)n2n1`
Result: -2.2

Query: Answer with the recorded inhibition of `COc1ccc(-c2cc3ccc(OCc4nn[nH]n4)cc3oc2=O)cc1` only.
Result: 81.4

Query: Recall and state the measured inhibition for `O=C(O)c1ccc(/C=N/NC(=O)c2ccc(Br)cc2)cc1` .
Result: 15.3

Query: Look up and report measured inhibition for this entry: `Cc1ccc(NC(=O)C(=O)NCc2ccc(/C=N/NC(=O)c3c(C)nc4cc(C)ccn34)o2)cc1`
Result: 70.8

Where do these numbers come from? They come from PubChem BioAssay AID1006.
